Hello, the source for this data is ChEMBL document CHEMBL5030545, in case you need it.

- ASSAY NOTES: Protein binding in rat plasma assessed as unbound fraction at 1 mg/kg administered as cassette dose
- Assay type: ADME, organism-based
Consider the cut-off 0.01. If the recorded fraction unbound is strictly smaller, the label is 1; if not, the label is -1.

Sample answers from the record:
>  <STRUCTURE NOTATION>
CC(C)Oc1ccc(Nc2nc(=O)n(CCC(=O)O)c(=O)n2Cc2ccc(Cl)cc2)cc1Cl

>  <CLASSIFICATION>
1

$$$$
>  <STRUCTURE NOTATION>
C[C@@H](Cn1c(=O)[nH]/c(=N\c2ccc(Oc3ccsn3)cc2)n(Cc2ccc(Cl)cc2)c1=O)C(=O)O

>  <CLASSIFICATION>
-1

$$$$
>  <STRUCTURE NOTATION>
CC(C)Oc1ccc(/N=c2\[nH]c(=O)n(C[C@@H](O)CO)c(=O)n2Cc2ccc(Cl)cc2)cc1Cl

>  <CLASSIFICATION>
1

$$$$
>  <STRUCTURE NOTATION>
C[C@@H](Cn1c(=O)[nH]/c(=N\c2ccc(OCC3CC3)cc2)n(Cc2ccc(Cl)cc2)c1=O)C(=O)O

>  <CLASSIFICATION>
-1

$$$$
>  <STRUCTURE NOTATION>
CC(C)Oc1ccc(Nc2nc(=O)n(CC(CO)CO)c(=O)n2Cc2ccc(Cl)cc2)cc1Cl

>  <CLASSIFICATION>
1

$$$$
>  <STRUCTURE NOTATION>
CC.C[C@@H](Cn1c(=O)[nH]/c(=N\c2ccc(Oc3cc(F)ccn3)cc2)n(Cc2ccc(Cl)cc2)c1=O)C(=O)O

>  <CLASSIFICATION>
1

$$$$

Ask: Lab log: compare recorded fraction unbound with 0.01; is it strictly lower for CC(C)Oc1ccc(/N=c2\[nH]c(=O)n(C[C@H](C)C(=O)O)c(=O)n2Cc2ccc(Cl)cc2)cc1F ?
Reply: 1

Ask: Lab log: compare recorded fraction unbound with 0.01; is it strictly lower for C[C@@H](Cn1c(=O)[nH]/c(=N\c2ccc(Oc3cccnn3)cc2)n(Cc2ccc(Cl)cc2)c1=O)C(=O)O ?
Reply: -1

====

- ASSAY NOTES: Free plasma concentration in rat plasma at 1 mg/kg administered as cassette dose
- Assay type: ADME, organism-based
- CONDITION INFO: in vivo
Each entry below carries its recorded Cp(f).
Kindly provide the numeric value in nM only, without the unit symbol.

Please review the following examples before continuing.
>  <STRUCTURE NOTATION>
C[C@@H](Cn1c(=O)[nH]/c(=N\c2ccc(Oc3cccc(F)n3)cc2)n(Cc2ccc(Cl)cc2)c1=O)C(=O)O

>  <Cp(f), nM>
456

$$$$
>  <STRUCTURE NOTATION>
Cc1ccc(Cn2c(=O)n(CC(C)(C)C(=O)O)c(=O)[nH]/c2=N\c2ccc(OC(C)C)c(Cl)c2)cc1

>  <Cp(f), nM>
139

$$$$
>  <STRUCTURE NOTATION>
C[C@@H](Cn1c(=O)[nH]/c(=N\c2ccc(Oc3ccc(F)cn3)cc2)n(Cc2ccc(Cl)cc2)c1=O)C(=O)O

>  <Cp(f), nM>
473

$$$$

Ask: Any idea what its Cp(f) is? The molecule is C[C@@H](Cn1c(=O)[nH]/c(=N\c2ccc(Oc3cncc(F)c3)cc2)n(Cc2ccc(Cl)cc2)c1=O)C(=O)O
Reply: 529

Ask: Any idea what its Cp(f) is? The molecule is CC.C[C@@H](Cn1c(=O)[nH]/c(=N\c2ccc(Oc3cc(F)ccn3)cc2)n(Cc2ccc(Cl)cc2)c1=O)C(=O)O
Reply: 240

Ask: Any idea what its Cp(f) is? The molecule is CC(C)Oc1ccc(Nc2nc(=O)n(CCO)c(=O)n2Cc2ccc(Cl)cc2)cc1Cl
Reply: 3095

====

Each entry below carries its recorded Cp(f).
- ASSAY NOTES: Free plasma concentration in rat plasma at 1 mg/kg administered as cassette dose
- Format: ADME, organism-based
- CONDITION INFO: in vivo
Kindly provide the numeric value in nM only, without the unit symbol.

>  <STRUCTURE NOTATION>
C[C@@H](Cn1c(=O)[nH]/c(=N\c2ccc(Oc3cccnn3)cc2)n(Cc2ccc(Cl)cc2)c1=O)C(=O)O

>  <Cp(f) / nM>
64

$$$$
>  <STRUCTURE NOTATION>
CC(C)Oc1ccc(/N=c2\[nH]c(=O)n(C[C@H](C)C(=O)O)c(=O)n2Cc2ccc(Cl)cc2)cc1

>  <Cp(f) / nM>
827

$$$$
>  <STRUCTURE NOTATION>
Cc1ccc(Cn2c(=O)n(CCCC(=O)O)c(=O)[nH]/c2=N\c2ccc(OC(C)C)c(Cl)c2)cc1

>  <Cp(f) / nM>
3655

$$$$
>  <STRUCTURE NOTATION>
C[C@@H](Cn1c(=O)[nH]/c(=N\c2ccc(Oc3ccccn3)cc2)n(Cc2ccc(Cl)cc2)c1=O)C(=O)O

>  <Cp(f) / nM>
658

$$$$

// moving on: another record for Cp(f)
Ask: Any idea what its Cp(f) is? The compound is CC(C)COc1ccc(/N=c2\[nH]c(=O)n(C[C@H](C)C(=O)O)c(=O)n2Cc2ccc(Cl)cc2)cc1
Reply: 253

====

Each entry below carries its recorded Ratio.
- ASSAY NOTES: Ratio of plasma concentration in rat measured after 3 hrs to IC50 of P2X3 (unknown origin)
- Format: ADME
- CONDITION INFO: in vivo
Just the number, please, no unit after it.

Please review the following examples before continuing.
>  <STRUCTURE NOTATION>
C[C@@H](Cn1c(=O)[nH]/c(=N\c2ccc(Oc3cccnn3)cc2)n(Cc2ccc(Cl)cc2)c1=O)C(=O)O

>  <QUANTITY NAME>
Ratio

>  <MEASUREMENT>
8.3

$$$$
>  <STRUCTURE NOTATION>
C[C@@H](Cn1c(=O)[nH]/c(=N\c2ccc(Oc3ccccn3)cc2)n(Cc2ccc(Cl)cc2)c1=O)C(=O)O

>  <QUANTITY NAME>
Ratio

>  <MEASUREMENT>
156.9

$$$$
>  <STRUCTURE NOTATION>
Cc1ccc(Cn2c(=O)n(C[C@H](C)C(=O)O)c(=O)[nH]/c2=N\c2ccc(OC(C)C)c(Cl)c2)cc1

>  <QUANTITY NAME>
Ratio

>  <MEASUREMENT>
98.9

$$$$
>  <STRUCTURE NOTATION>
CC(C)Oc1ccc(/N=c2\[nH]c(=O)n(C[C@H](C)C(=O)O)c(=O)n2Cc2ccc(Cl)cc2)cc1F

>  <QUANTITY NAME>
Ratio

>  <MEASUREMENT>
145.2

$$$$

// moving on: another record for Ratio
Ask: Any idea what its Ratio is? The compound is CC(C)Oc1ccc(/N=c2\[nH]c(=O)n(C[C@@H](O)CO)c(=O)n2Cc2ccc(Cl)cc2)cc1Cl
Reply: 284.5
